tested on: A549 NSCLC; experiment: NCI tumour cell line growth inhibition, 48 h
Experimental endpoint: TGI

Example results:
Lab note: `O=C(/C=C/c1ccc(OCc2ccccc2)c(OCc2ccccc2)c1)OCc1ccccc1` gave TGI of > 100 µM

Lab note: `C=C[C@H]1CN2CCc3c([nH]c4cc(O)ccc34)[C@@H]2C[C@@H]1C[C@H]1c2[nH]c3ccccc3c2CCN1C` gave TGI of 15 µM

Lab note: `C[C@H](NS(=O)(=O)c1ccc(NC(=O)c2ccccc2)cc1)C(=O)O` gave TGI of > 100 µM

Lab note: `Cc1ccc2c3c4c(ccc13)C(C)(C)OC4=C(C(C)C)C2=O` gave TGI of > 100 µM

Lab note: `O=S(=O)(N/N=C/c1c(Cl)cccc1Cl)c1ccccc1` gave TGI of > 100 µM

More entries:
Lab note: COC(O)C(=O)c1c2c(cc3c1CCC3)CCCC2 (stereo not given) gave TGI of 40.9 µM

Lab note: COc1ccc(C2C(Cl)C(=O)N2NC(=O)c2ccccc2O)cc1 (stereo not given) gave TGI of > 100 µM

Lab note: Nc1ncc2ccc3c(ccn3C3CC(O)C(CO)O3)c2n1 (stereo not given) gave TGI of > 100 µM

Lab note: CC1(C)CC2(S(=O)(=O)c3ccccc3)ON1CC2S(=O)(=O)c1ccccc1 (stereo not given) gave TGI of > 100 µM

Lab note: `CCOC(=O)c1c(O)cc(=O)[nH]c1N1CCOCC1` gave TGI of > 100 µM

* * *

system: HL-60(TB) leukemia; assay: NCI tumour cell line growth inhibition, 48 h
If the reported TGI equals or exceeds 20 µM, assign 1. If not, assign -1.

Before answering, review these 6 worked examples.
Quick check, TGI >= 20 µM? C=C1C2CC[C@@](C)(O)C2[C@H]2OC(=O)C(=C)[C@@H]2C[C@H]1O (some centres undefined)
1

Quick check, TGI >= 20 µM? CC#C[C@@]1(O)CCCCC1O (some centres undefined)
1

Quick check, TGI >= 20 µM? `O=C(/C=C/c1ccc(OCc2ccccc2)c(OCc2ccccc2)c1)OCc1ccccc1`
1

Quick check, TGI >= 20 µM? `COc1cc2c3c(n(CCCN(C)C)c(=O)c2cc1OC)-c1cc2c(cc1C3=O)OCO2`
-1

Quick check, TGI >= 20 µM? `COc1ccc(Nc2nc(C#N)c(N)s2)cc1`
1

Quick check, TGI >= 20 µM? CC(C)(C)C1CCC2c3c([nH]c4ccccc34)C3C(=O)N(c4ccc(C(=O)O)cc4)C(=O)C3C2C1 (centres undefined)
-1

More entries:
Quick check, TGI >= 20 µM? C=CCCCC(=O)CCC(=O)OCC1O[C@@H](O[C@@H]2C(O)[C@@H](OC(C)=O)C(C)O[C@H]2O[C@H](CC=C)CCCCC)C(O)[C@@H](OC(=O)/C(C)=C/C)[C@@H]1OC(=O)/C=C/c1ccccc1 (some centres undefined)
-1

Quick check, TGI >= 20 µM? COc1nc(SC)nc2c1C(O)n1c(nc3ccccc31)S2 (centres undefined)
1

Quick check, TGI >= 20 µM? `c1ccc(C[n+]2ccc3c(c2)CCCC3)cc1`
1

* * *

tested on: SR leukemia; experiment: NCI tumour cell line growth inhibition, 48 h
If the reported TGI equals or exceeds 10 µM, assign T. If not, assign F.

Quick check, TGI >= 10 µM? `Cc1c(-c2ccc(O)c(O)c2)oc(=O)c2c(O)cc(O)cc12`
T

Quick check, TGI >= 10 µM? `O=c1[nH]c2ccccc2nc1CBr`
F

Quick check, TGI >= 10 µM? CCOC(=O)C(C(N)=O)c1nc2cc([N+](=O)[O-])ccc2nc1/C=C(\O)c1ccccc1 (stereo unspecified)
T

Quick check, TGI >= 10 µM? COc1ccc(C2C(Cl)C(=O)N2NC(=O)c2ccccc2O)cc1 (stereo unspecified)
T

# evaluate next
Quick check, TGI >= 10 µM? COc1cc(/C=C2\CCC(C)C3=C(c4cc(OC)c(OC)c(OC)c4)C(C#N)=C(N)OC32)cc(OC)c1OC (stereo unspecified)
T
